Provide the recorded Ratio/Fc-H for the entries that follow.
target-system: T1, FcRn-p3 fusion protein (human, UniProt P55899 24-297; P61769 21-119)
T1 construct: baculovirus expressed; coated on ELISA wells; not shown: amino terminal part of bacteriophage p3 protein and CVDE protein
T1 sequence (P55899 24-297, chain 1 of 2): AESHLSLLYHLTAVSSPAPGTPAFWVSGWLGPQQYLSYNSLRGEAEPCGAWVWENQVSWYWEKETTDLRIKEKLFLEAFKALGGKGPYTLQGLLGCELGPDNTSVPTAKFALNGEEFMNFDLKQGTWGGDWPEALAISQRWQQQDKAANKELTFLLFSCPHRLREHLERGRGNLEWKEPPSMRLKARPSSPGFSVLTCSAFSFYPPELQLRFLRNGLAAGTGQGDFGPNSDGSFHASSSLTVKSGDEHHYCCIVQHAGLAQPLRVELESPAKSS
T1 sequence (P61769 21-119, chain 2 of 2): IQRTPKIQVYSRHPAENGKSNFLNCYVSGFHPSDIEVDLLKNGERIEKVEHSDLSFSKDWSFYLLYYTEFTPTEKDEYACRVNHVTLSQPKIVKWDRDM
assay-name: phage ELISA pH6
A number alone suffices; assume fold.

[Q] GET /values?readout=Ratio/Fc-H&item= C5A_50 (other, EU numbering) CPPCPAPELLGGPSVFLFPPKPKDTLMISRTPEVTCVVVDVSHENPEVKFNWYVDGVEVHNAKTKPREEQYNSTYRVVSVLTVLHQDWLDGKEYKCKVSNKALPAPIEKTISKAKGQPREPQVYTLPPSRDELTKNQVSLTCLVKGFYPSDIAVEWESNGQPENNYKTTPPVLDSDGSFFLYSKLTVDKSRWQQGNVFSCSVMHEALHYHYTQKSLSLSPGK
[A] 2.3

[Q] Record request: Ratio/Fc-H value, item T5A_51 (other, EU numbering) CPPCPAPELLGGPSVFLFPPKPKDTLMISRTPEVTCVVEDVSHEDPEVKFNWYVDGVEVHNAKTKPREEQYNSTYRVVSVLTVLHQDWLNGKEYKCKVSNKALPAPIEKTISKAKGQPREPQVYTLPPSRDELTKNQVSLTCLVKGFYPSDIVVEWESNGQPENNYKTTPPVLDSDGSLFLYSKLTVDKSRWQQGNVFSCSVMHEALHSHYTQKSLSLSPGK
[A] 2.8
